# target-or-system: [NEK7]-[compound of formula (I)]-[CRBN/DDB1] complex (Homo sapiens, UniProt Q8TDX7+Q96SW2)
# Sequence (Q8TDX7 whole entry): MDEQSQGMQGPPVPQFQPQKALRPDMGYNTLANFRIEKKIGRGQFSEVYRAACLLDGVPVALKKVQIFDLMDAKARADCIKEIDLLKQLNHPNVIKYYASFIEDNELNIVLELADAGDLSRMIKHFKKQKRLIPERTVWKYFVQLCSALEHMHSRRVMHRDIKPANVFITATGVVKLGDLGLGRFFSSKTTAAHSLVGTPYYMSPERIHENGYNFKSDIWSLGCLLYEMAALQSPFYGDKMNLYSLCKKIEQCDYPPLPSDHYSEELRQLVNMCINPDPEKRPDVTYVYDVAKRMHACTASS
# Sequence (Q96SW2 whole entry): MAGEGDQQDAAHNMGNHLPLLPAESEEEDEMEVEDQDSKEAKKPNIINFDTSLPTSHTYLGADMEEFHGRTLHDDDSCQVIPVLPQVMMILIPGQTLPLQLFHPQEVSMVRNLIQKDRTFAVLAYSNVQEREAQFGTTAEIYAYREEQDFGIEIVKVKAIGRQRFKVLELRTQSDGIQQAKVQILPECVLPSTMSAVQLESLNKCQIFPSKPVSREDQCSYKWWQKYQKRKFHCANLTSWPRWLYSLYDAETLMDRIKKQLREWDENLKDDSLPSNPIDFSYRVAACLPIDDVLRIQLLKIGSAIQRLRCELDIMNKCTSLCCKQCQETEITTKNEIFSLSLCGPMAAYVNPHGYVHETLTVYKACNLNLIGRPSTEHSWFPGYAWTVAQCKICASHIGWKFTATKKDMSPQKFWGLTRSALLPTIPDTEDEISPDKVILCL
# Sequence (Q16531 whole entry partner): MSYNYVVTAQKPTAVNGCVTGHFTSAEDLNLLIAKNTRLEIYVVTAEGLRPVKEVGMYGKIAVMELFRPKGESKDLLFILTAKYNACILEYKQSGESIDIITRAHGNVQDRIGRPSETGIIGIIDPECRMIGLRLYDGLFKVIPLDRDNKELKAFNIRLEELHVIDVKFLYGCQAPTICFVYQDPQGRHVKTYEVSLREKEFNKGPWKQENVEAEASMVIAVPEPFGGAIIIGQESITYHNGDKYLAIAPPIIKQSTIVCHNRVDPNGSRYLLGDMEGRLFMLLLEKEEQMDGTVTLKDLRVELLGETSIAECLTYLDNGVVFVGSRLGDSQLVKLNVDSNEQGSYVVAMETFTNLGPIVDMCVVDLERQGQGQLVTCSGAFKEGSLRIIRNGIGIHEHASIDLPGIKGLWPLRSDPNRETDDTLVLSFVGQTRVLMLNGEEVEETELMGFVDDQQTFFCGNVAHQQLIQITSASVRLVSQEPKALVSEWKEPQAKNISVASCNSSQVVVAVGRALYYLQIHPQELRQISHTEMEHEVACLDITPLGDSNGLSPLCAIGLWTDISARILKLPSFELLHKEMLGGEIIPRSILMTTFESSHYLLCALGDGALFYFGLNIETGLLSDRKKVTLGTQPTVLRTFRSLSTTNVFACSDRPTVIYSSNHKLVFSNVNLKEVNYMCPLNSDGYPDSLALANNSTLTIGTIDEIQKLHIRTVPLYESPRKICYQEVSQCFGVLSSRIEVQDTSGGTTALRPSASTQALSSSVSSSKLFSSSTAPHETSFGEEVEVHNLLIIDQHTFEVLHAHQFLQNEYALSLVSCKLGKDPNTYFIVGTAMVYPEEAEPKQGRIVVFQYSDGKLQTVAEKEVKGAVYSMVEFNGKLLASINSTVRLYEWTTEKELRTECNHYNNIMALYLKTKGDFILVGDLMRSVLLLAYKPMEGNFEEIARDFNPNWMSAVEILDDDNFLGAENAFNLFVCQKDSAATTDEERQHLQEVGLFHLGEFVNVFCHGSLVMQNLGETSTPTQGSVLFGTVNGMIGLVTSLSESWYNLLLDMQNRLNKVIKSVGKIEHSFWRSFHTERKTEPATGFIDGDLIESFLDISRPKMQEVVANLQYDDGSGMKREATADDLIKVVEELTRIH
# test-description: AlphaLISA dose response ternary complex formation assay
# Format: binding
# run-parameters: 1 μM compound; normalized to maximum signal of Compound 2 (positive control) and DMSO background; read-out: Normalized AlphaLISA ternary complex average signal at 1 μM molecule
property-label: activation at 1 µM

Examples with answers:
The molecule listed as O=C1CCC(N2C(=O)c3cccc4c(-c5ccccn5)ccc2c34)C(=O)N1 (stereo not drawn) has a reported activation at 1 µM of < 10%

The molecule listed as O=C1CCC(N2Cc3cc(C4CCCCO4)sc3C2=O)C(=O)N1 (stereo not drawn) has a reported activation at 1 µM of < 10%

The molecule listed as O=C1CCC(N2Cc3cc([C@@H]4CCCCN4)ccc3C2=O)C(=O)N1 (stereo partly drawn) has a reported activation at 1 µM of 10 to 20%

The molecule listed as CC1c2cc(C3CCCCN3)ccc2C(=O)N1C1CCC(=O)NC1=O (stereo not drawn) has a reported activation at 1 µM of > 80%

---
The molecule listed as O=C1CCC(N2Cc3c(csc3-c3ccccn3)C2=O)C(=O)N1 (stereo not drawn) has a reported activation at 1 µM of < 10%

The molecule listed as O=C1CCC(N2Cc3cc(C4CCCCN4)sc3C2=O)C(=O)N1 (stereo not drawn) has a reported activation at 1 µM of < 10%

The molecule listed as O=C1CCC(N2C(=O)c3ccc(C4CCCCN4)cc3C2=O)C(=O)N1 (stereo not drawn) has a reported activation at 1 µM of 20 to 80%

The molecule listed as CC(=O)NC1CCC(c2ccc3c(c2)CN(C2CCC(=O)NC2=O)C3=O)NC1 (single isomer, unassigned) [33 Isomer 1] has a reported activation at 1 µM of 20 to 80%

The molecule listed as O=C1CCC(N2Cc3cc(C4CCCC(=O)N4)ccc3C2=O)C(=O)N1 (stereo not drawn) has a reported activation at 1 µM of < 10%

====

# target-or-system: [NEK7]-[compound of formula (I)]-[CRBN/DDB1] complex (Homo sapiens, UniProt Q8TDX7+Q96SW2)
# test-description: HTRF ternary complex assay
# Format: binding
# run-parameters: dose-response, 180 min at 25° C.; read-out: HTRF ternary complex Average pEC50 by molecule (converted)
# EC50 values compiled below

Test item O=C1CCC(N2Cc3cc(C4CCC(Cc5ccccc5)CN4)ccc3C2=O)C(=O)N1 (single isomer, unassigned) [35 Isomer 1] ; [NEK7]-[compound of formula (I)]-[CRBN/DDB1] complex (Homo sapiens, UniProt Q8TDX7+Q96SW2); reported EC50 was 100 to 316 nM

---
Test item O=C1CCC(N2Cc3c(ccc(C4CCCCN4)c3F)C2=O)C(=O)N1 (centres unmarked) ; [NEK7]-[compound of formula (I)]-[CRBN/DDB1] complex (Homo sapiens, UniProt Q8TDX7+Q96SW2); reported EC50 was > 3160 nM

Test item CC1c2cc(C3CCCCO3)ccc2C(=O)N1C1CCC(=O)NC1=O (centres unmarked) ; [NEK7]-[compound of formula (I)]-[CRBN/DDB1] complex (Homo sapiens, UniProt Q8TDX7+Q96SW2); reported EC50 was 316 to 1000 nM

Test item O=C1CCC(N2Cc3cc(C4COCCN4)ccc3C2=O)C(=O)N1 (centres unmarked) ; [NEK7]-[compound of formula (I)]-[CRBN/DDB1] complex (Homo sapiens, UniProt Q8TDX7+Q96SW2); reported EC50 was 100 to 316 nM

Test item O=C1CCC(N2Cc3cc(-c4ccccn4)ccc3C2=O)C(=O)N1 (centres unmarked) ; [NEK7]-[compound of formula (I)]-[CRBN/DDB1] complex (Homo sapiens, UniProt Q8TDX7+Q96SW2); reported EC50 was 316 to 1000 nM
